- Tested on: Candida glabrata
- experiment-notes: checkerboard drug interaction (FICI, MICc);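 further: simplified diagonal checkerboard screen pairing antifungals with FPPS inhibitors, FICI calculated under the Loewe additivity model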
- Assay type: cell-based
- condition-notes: C. glabrata; KET:INH combination; fold decrease of inhibitor MIC
measured-property: INH FD (MIC-MICc fold decrease)

Examples with answers:
CCCCCCCCCN1CCC[C@H]1C(=O)N[C@@H](CC(=O)O)C(=O)O [PLA9]: 128
CCCCCCCCCCN1CCC[C@H]1C(=O)N[C@H](CC(=O)OC)C(=O)OC [dmPDA10]: 1
CCCCCCCCCCN1CCC[C@H]1C(=O)N[C@@H](CC(=O)OC)C(=O)OC [dmPLA10]: 2
CCCCCCCCCN1CCC[C@H]1C(=O)N[C@H](CC(=O)OC)C(=O)OC [dmPDA9]: 16

Reported INH FD (MIC-MICc fold decrease) for Candida glabrata, given CCCCCCCCCCCCN1CCC[C@H]1C(=O)N[C@@H](CC(=O)OC)C(=O)OC [dmPLA12] ?
4

Input CCCCCCCCCCCN1CCC[C@H]1C(=O)N[C@H](CC(=O)O)C(=O)O [PDA11]
128

Another molecule: O=P(O)(O)C(O)(Cn1ccnc1)P(=O)(O)O [ZOL, zoledronate]
4

Item: CCCCCCCCCCCCN1CCC[C@H]1C(=O)N[C@H](CC(=O)OC)C(=O)OC [dmPDA12]
8

What do you get for CCCCCCCCCCCN1CCC[C@H]1C(=O)N[C@@H](CC(=O)OC)C(=O)OC [dmPLA11] ?
4

----------
- Tested on: Cryptococcus deuterogattii
- experiment-notes: checkerboard drug interaction (FICI, MICc);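 further: simplified diagonal checkerboard screen pairing antifungal drugs with FPPS inhibitors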
- Format: cell-based
- condition-notes: C. deuterogattii; KET:INH combination; fold decrease of inhibitor MIC
Item-by-item account of INH FD (MIC-MICc fold decrease)
// print number alone

// worked examples, INH FD (MIC-MICc fold decrease) included
CCCCCCCCCN1CCC[C@H]1C(=O)N[C@@H](CC(=O)O)C(=O)O: 2
CCCCCCCCCCCN1CCC[C@H]1C(=O)N[C@@H](CC(=O)O)C(=O)O: 2
CCCCCCCCCN1CCC[C@H]1C(=O)N[C@H](CC(=O)O)C(=O)O: 1

Data request, read-out INH FD (MIC-MICc fold decrease), for CCCCCCCCCCN1CCC[C@H]1C(=O)N[C@@H](CC(=O)OC)C(=O)OC
4

What about this molecule? CCCCCCCCCCN1CCC[C@H]1C(=O)N[C@H](CC(=O)OC)C(=O)OC
2

Also CCCCCCCCCCCN1CCC[C@H]1C(=O)N[C@@H](CC(=O)OC)C(=O)OC , if possible.
1

Try CCCCCCCCCCCCN1CCC[C@H]1C(=O)N[C@H](CC(=O)O)C(=O)O next.
4

And the next one, CCCCCCCCCCCN1CCC[C@H]1C(=O)N[C@H](CC(=O)OC)C(=O)OC ?
1

Quick one: O=P(O)(O)C(O)(Cn1ccnc1)P(=O)(O)O [ZOL, zoledronate]
4

How about CCCCCCCCCCCN1CCC[C@H]1C(=O)N[C@H](CC(=O)O)C(=O)O ?
2

Thanks! And CCCCCCCCCCCCN1CCC[C@H]1C(=O)N[C@@H](CC(=O)OC)C(=O)OC ?
8

For CCCCCCCCCN1CCC[C@H]1C(=O)N[C@@H](CC(=O)OC)C(=O)OC then?
1

What do we get for CCCCCCCCCN1CCC[C@H]1C(=O)N[C@H](CC(=O)OC)C(=O)OC ?
1

Input CCCCCCCCCCCCN1CCC[C@H]1C(=O)N[C@H](CC(=O)OC)C(=O)OC
8
